src = patent US8575197B2

tested-on: human P2X3 receptor (Homo sapiens (Human))
method-summary: P2X3 receptor inhibition, ATP-evoked Fluo-3 calcium fluorescence (FDSS 3000)
details: C6BU-1 cell transfected with human P2X3 receptor gene; ATP-evoked Fluo-3 fluorescence
experimental-endpoint: IC50 (nM)
Give bare numbers, in nM.

Note to self: IC50 recorded for COCCOc1ncccc1C1C(C(=O)C(C)(C)C)=C(O)C(=O)N1c1ccc(-c2cccs2)cc1 (stereo not shown) was 15

Hi! Can you tell me IC50 for each of these molecules?
1. COc1ncccc1C1c2c(C(C)(C)C)n[nH]c2C(=O)N1c1ccc(-c2ccoc2)cc1 (stereo not shown)
2. Cc1ccc(-c2ccc(N3C(=O)C(O)=C(C(=O)CC(C)C)C3c3ccccc3OCCO)cc2)s1 (stereo not shown)
3. COCOc1ccccc1C1C(C(=O)C(C)C)=C(O)C(=O)N1c1ccc(-c2ccc(C)s2)cc1 (stereo not shown)
4. CC(C)C(=O)C1=C(O)C(=O)N(c2ccc(-c3ccsc3)cc2)C1c1ccccc1OCCN(C)C (stereo not shown) [Compound I-158]

Resp:
[69, 65, 14, 23]

Hi! Can you tell me IC50 for each of these molecules?
1. COCCN(C)C(=O)c1ccccc1C1C(C(=O)C(C)C)=C(O)C(=O)N1c1ccc(-c2csc(C)c2)cc1 (stereo not shown)
2. COc1ccccc1C1c2c(-c3ccco3)n[nH]c2C(=O)N1c1ccc(-c2ccsc2)cc1 (stereo not shown)

Resp:
1: 217; 2: 149

Hi! Can you tell me IC50 for each of these molecules?
1. CN(C)C(=O)c1ccccc1C1C(C(=O)CC(C)(C)C)=C(O)C(=O)N1c1ccc(-c2ccsc2)cc1 (stereo not shown)
2. COCCOc1ccccc1C1C(C(=O)C(C)C)=C(O)C(=O)N1c1ccc(-c2noc(C)n2)cc1 (stereo not shown)
3. COCc1ccccc1C1C(C(=O)CC(C)C)=C(O)C(=O)N1c1ccc(-c2ccsc2)cc1 (stereo not shown)
4. COc1ncccc1C1C(C(=O)CC(C)C)=C(O)C(=O)N1c1ccc(-c2ccoc2)cc1 (stereo not shown)
5. COCc1ccccc1C1C(C(=O)C(C)C)=C(O)C(=O)N1c1ccc(C2CCCC2)cc1 (stereo not shown)
6. COCCOc1ccccc1C1C(C(=O)CC(C)C)=C(O)C(=O)N1c1ccc(-c2noc(C)n2)cc1 (stereo not shown)

Resp:
1. 260
2. 172
3. 10
4. 336
5. 70
6. 117

----------
tested-on: UniProt P56373
method-summary: P2X3 receptor inhibition, ATP-evoked Fluo-3 calcium fluorescence (FDSS 3000)
details: C6BU-1 cell transfected with human P2X3 receptor gene; ATP-evoked Fluo-3 fluorescence
pIC50: −log10 of the molar value.
Decide by pIC50: equal to or exceeding 7 means yes, less means no.

Req: Say whether COCCc1ccccc1C1C(C(=O)C(C)C)=C(O)C(=O)N1c1ccc(-c2ccsc2)cc1 (stereo not shown) shows pIC50 of 7 or more.
Resp: yes

Req: Say whether CCC(CC)(CO)c1n[nH]c2c1C(c1ccccc1OC)N(c1ccc(-c3ccon3)cc1)C2=O (stereo not shown) shows pIC50 of 7 or more.
Resp: yes

Req: Say whether CC(C)OCc1ccccc1C1C(C(=O)C(C)C)=C(O)C(=O)N1c1ccc(-c2ccon2)cc1 (stereo not shown) shows pIC50 of 7 or more.
Resp: no

Next:
Req: Say whether CC(C)(C)c1n[nH]c2c1C(c1cccnc1OCCO)N(c1ccc(-c3ccco3)cc1)C2=O (stereo not shown) shows pIC50 of 7 or more.
Resp: yes

Req: Say whether Cc1nc(-c2ccc(N3C(=O)C(O)=C(C(=O)c4cc[nH]c4)C3C3CCCCC3)cc2)no1 (stereo not shown) shows pIC50 of 7 or more.
Resp: no

Req: Say whether CC(C)C(=O)C1=C(O)C(=O)N(c2ccc(-c3ccon3)cc2)C1c1ccccc1OCCO (stereo not shown) shows pIC50 of 7 or more.
Resp: no

Req: Say whether COCCOc1ncccc1C1c2c(C(C)C)n[nH]c2C(=O)N1c1ccc(-c2ccon2)cc1 (stereo not shown) shows pIC50 of 7 or more.
Resp: no

Req: Say whether COCCOc1ncccc1C1C(C(=O)C2CCCC2)=C(O)C(=O)N1c1ccc(-c2ccon2)cc1 (stereo not shown) shows pIC50 of 7 or more.
Resp: no

Req: Say whether CC(C)c1n[nH]c2c1C(c1ccccc1OCC(N)=O)N(c1ccc(-c3ccsc3)cc1)C2=O (stereo not shown) shows pIC50 of 7 or more.
Resp: yes

Req: Say whether CSc1ccc(N2C(=O)C(O)=C(C(=O)CC(C)C)C2c2ccccc2OC(C)C)cc1 (stereo not shown) shows pIC50 of 7 or more.
Resp: yes

Req: Say whether Cc1ccc(-c2ccc(N3C(=O)C(O)=C(C(=O)C(C)C)C3c3ccccc3OC(F)(F)F)cc2)o1 (stereo not shown) shows pIC50 of 7 or more.
Resp: yes

----------
tested-on: human P2X3 receptor (Homo sapiens (Human), UniProt P56373)
Sequence (P56373 whole entry): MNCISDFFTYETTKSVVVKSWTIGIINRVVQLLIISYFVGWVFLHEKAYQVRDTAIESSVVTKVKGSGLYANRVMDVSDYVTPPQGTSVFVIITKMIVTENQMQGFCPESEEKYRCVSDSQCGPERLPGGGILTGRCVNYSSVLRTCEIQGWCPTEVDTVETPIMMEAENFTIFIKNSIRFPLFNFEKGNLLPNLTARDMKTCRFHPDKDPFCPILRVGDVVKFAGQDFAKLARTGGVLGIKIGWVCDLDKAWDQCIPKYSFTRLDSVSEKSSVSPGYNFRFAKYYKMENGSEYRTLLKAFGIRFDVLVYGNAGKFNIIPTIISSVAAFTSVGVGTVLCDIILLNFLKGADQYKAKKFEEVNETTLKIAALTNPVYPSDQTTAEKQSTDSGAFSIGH
method-summary: P2X3 receptor inhibition, ATP-evoked Fluo-3 calcium fluorescence (FDSS 3000)
details: C6BU-1 cell transfected with human P2X3 receptor gene; ATP-evoked Fluo-3 fluorescence
Method: Stably expressing cell line (C6BU-1 cell transfected with human P2X3 receptor gene (GenBank accession number Y07683)) was used. […] Five minutes after, 40 nM ATP solution (50 μL) prepared by dilution with the dilution buffer was dispensed through the built-in automatic dispenser, and the measurement of fluorescence intensity was continued for 3 min. […] FDSS software (Hamamatsu Photonics K.K.) was used for calculation of the specific maximum fluorescence intensity. […]
I'd be grateful if you could share measured IC50 for these entries.
Numbers only, in nM.

Let me check: Cc1ncccc1C1C(C(=O)C(C)(C)C)=C(O)C(=O)N1c1ccc(-c2ccsc2)cc1 (stereo not shown) [Compound I-143] , system human P2X3 receptor (Homo sapiens (Human), UniProt P56373), measured IC50 is 331

Let me check: COc1ccccc1C1C(C(=O)CC(C)C)=C(O)C(=O)N1c1ccc(-c2cc(C)no2)cc1 (stereo not shown) [Compound I-339] , system human P2X3 receptor (Homo sapiens (Human), UniProt P56373), measured IC50 is 892

Let me check: CCOC(=O)C1C(C(=O)C(C)C)=C(O)C(=O)N1c1ccc(-c2ccsc2)cc1 (stereo not shown) [Compound I-216] , system human P2X3 receptor (Homo sapiens (Human), UniProt P56373), measured IC50 is 679

Hi! Can you tell me IC50 for each of these compounds?
1. COCc1ccccc1C1C(C(=O)CC(C)C)=C(O)C(=O)N1c1ccc(-c2ccc(C)s2)cc1 (stereo not shown) [Compound I-303]
2. COCCOc1ncccc1C1C(C(=O)C(C)(C)C)=C(O)C(=O)N1c1ccc(-c2ccoc2)cc1 (stereo not shown) [Compound I-164]

Resp:
1. 31
2. 74

Hi! Can you tell me IC50 for each of these compounds?
1. CCOc1ccccc1C1C(C(=O)C(C)(C)C)=C(O)C(=O)N1c1ccc(-c2ccon2)cc1 (stereo not shown) [Compound I-059]
2. Cc1nc(-c2ccc(N3C(=O)C(O)=C(C(=O)C(C)C)C3c3cccnc3N3CCOCC3)cc2)no1 (stereo not shown) [Compound I-524]
3. Cc1ccc(-c2ccc(N3C(=O)C(O)=C(C(=O)CC(C)C)C3c3cccnc3C(=O)NCC#N)cc2)s1 (stereo not shown) [Compound I-577]
4. COCCCOc1ccccc1C1C(C(=O)C(C)C)=C(O)C(=O)N1c1ccc(-c2ccsc2)cc1 (stereo not shown) [Compound I-489]
5. COCc1ccccc1C1C(C(=O)C(C)C)=C(O)C(=O)N1c1ccc(-c2ccco2)cc1 (stereo not shown) [Compound I-354]
6. COCc1ccccc1C1C(C(=O)C(C)C)=C(O)C(=O)N1c1ccc2sc(C)nc2c1 (stereo not shown) [Compound I-385]
7. COc1ccccc1C1c2c(C(C)(C)C(=O)O)n[nH]c2C(=O)N1c1ccc(-c2cccs2)cc1 (stereo not shown) [II-163]
8. CC(C)C(=O)C1=C(O)C(=O)N(c2ccc(-c3ccsc3)cc2)C1c1ccccc1C#N (stereo not shown) [Compound I-244]

Resp:
1. 260
2. 696
3. 47
4. 6
5. 57
6. 227
7. 34
8. 27

Hi! Can you tell me IC50 for each of these compounds?
1. COc1ccccc1C1c2c(C(C)(C)CO)n[nH]c2C(=O)N1c1ccc(-c2ccoc2)cc1 (stereo not shown) [II-219]
2. COCCOc1ccccc1C1c2c(C(C)(C)C)n[nH]c2C(=O)N1c1ccc(-c2cccs2)cc1 (stereo not shown) [II-114]
3. COc1ccccc1C1C(C(=O)C(C)C)=C(O)C(=O)N1c1ccc(-c2ccsc2)c(C)c1 (stereo not shown) [Compound I-236]

Resp:
1: 14; 2: 12; 3: 431

Hi! Can you tell me IC50 for each of these compounds?
1. CC(C)(C)c1n[nH]c2c1C(c1ccccc1OCCO)N(c1ccc(-c3ccco3)cc1)C2=O (stereo not shown) [II-105]
2. COc1ccccc1C1c2c(C(C)(C)COC(C)=O)n[nH]c2C(=O)N1c1ccc(SC)cc1 (stereo not shown) [II-010]
3. COCc1ccccc1C1C(C(=O)C(C)C)=C(O)C(=O)N1c1ccc(-c2csc(C)c2)cc1 (stereo not shown) [Compound I-265]
4. CC(C)C(=O)C1=C(O)C(=O)N(c2ccc(-c3ccon3)cc2)C1c1ccccc1OC(F)(F)F (stereo not shown) [Compound I-297]
5. CC(C)C(=O)C1=C(O)C(=O)N(c2ccc(-c3ccsc3)cc2)C1c1ccccc1OCC(CO)CO (stereo not shown) [Compound I-456]
6. COCCOc1ccccc1C1c2c(C(C)(C)C)n[nH]c2C(=O)N1c1ccc(-c2ccsc2)cc1 (stereo not shown) [II-115]
7. CC(C)C(=O)C1=C(O)C(=O)N(c2ccc(-c3ccsc3)cc2)C1c1ccccc1OCCCO (stereo not shown) [Compound I-429]

Resp:
13
134
28
220
6
11
7
